- Tested system: T1, soluble human ASGR-1 carbohydrate binding domain (CBD; amino acid residues 154-281; N-terminal 6xHis tag) (human, UniProt P07306 154-281)
- T1 construct: also called ASGR-1 CBD
- T1 sequence: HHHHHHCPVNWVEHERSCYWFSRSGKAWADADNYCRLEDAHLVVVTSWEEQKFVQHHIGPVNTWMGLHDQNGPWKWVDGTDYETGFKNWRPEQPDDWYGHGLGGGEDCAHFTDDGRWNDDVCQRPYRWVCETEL
- Measurement description: Octet BLI, mAb on AR2G tips, 1:1 fit
Reported pKd values for a set of binders
Would you please state pKd, meaning minus log10 of the concentration in mol/L, as a bare number?

198G3 (antibody, V domains shown, mAb) VH: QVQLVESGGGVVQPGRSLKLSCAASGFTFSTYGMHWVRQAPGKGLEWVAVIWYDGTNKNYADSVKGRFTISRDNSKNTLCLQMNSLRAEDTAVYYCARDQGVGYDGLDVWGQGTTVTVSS VL: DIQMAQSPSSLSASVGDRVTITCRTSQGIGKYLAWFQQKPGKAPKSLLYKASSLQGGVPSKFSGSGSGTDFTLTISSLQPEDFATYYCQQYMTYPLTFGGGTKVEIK: 10.40

Please look at the following binder next.
Prompt line: Tell me its pKd given 75G3 (antibody, V domains shown, mAb) VH: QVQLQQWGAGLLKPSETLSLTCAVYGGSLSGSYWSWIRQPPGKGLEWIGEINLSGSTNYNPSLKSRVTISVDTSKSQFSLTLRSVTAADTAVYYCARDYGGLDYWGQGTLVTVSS VL: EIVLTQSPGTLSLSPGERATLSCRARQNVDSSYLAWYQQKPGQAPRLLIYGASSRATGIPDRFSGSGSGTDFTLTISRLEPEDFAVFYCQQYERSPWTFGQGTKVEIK as the entry.
Response line: 9.00
